# assay_target: BRAF-GTP-KRAS-G12C complex (Homo sapiens, UniProt P01116+P62937, G12C)
# Construct: 50 nM of His6-KRas G12C-GTP (1-169); 500 nM of tagless CypA (1-165)
# test_details: KRAS-BRAF complex disruption through competition with CYPA-compound by TR-FRET
# test_conditions: biochemical BRAF-KRAS G12C-GTP disruption assay EC50, with CYPA
pEC50: −log10 of the molar value.

compound: C=CC(=O)N1CCC(C(=O)N(C)C(C(=O)NC2Cc3cc(O)cc(c3)-c3ccc4c(c3)c(c(C#N)n4CC)CC(C)(C)COC(=O)C3CCCN(N3)C2=O)C2CCCC2)C1 (stereo not shown)
pEC50: ≥ 6.30

compound: C=CC(=O)N1CC2(CCN(C(C(=O)NC3Cc4cc(O)cc(c4)-c4ccc5c(C(C)(C)C#N)cn(c5c4)CC(C)(C)COC(=O)C4CCCN(N4)C3=O)C(C)C)C2=O)C1 (stereo not shown)
pEC50: 5.30 to 6.30

compound: C=CC(=O)N1CCC(C(=O)N(C)C(C(=O)NC2Cc3cc(O)cc(c3)-c3ccc4c(c3)N(CC(C)(C)COC(=O)C3CCCN(N3)C2=O)CC4(C)COC)C2CCCC2)C1 (stereo not shown)
pEC50: 5.30 to 6.30

compound: C#Cc1nn2c3cc(ccc13)-c1cc(O)cc(c1)C[C@H](NC(=O)[C@H](C(C)C)N(C)C(=O)C1CN(C(=O)CCl)C1)C(=O)N1CCC[C@H](N1)C(=O)OCC(C)(C)C2
pEC50: ≥ 6.30

compound: C=CC(=O)N1CCC(C(=O)N(C)C(C(=O)NC2Cc3cc(O)cc(c3)-c3ccc4c(c3)c(c(C#N)n4CCOC)CC(C)(C)COC(=O)C3CCCN(N3)C2=O)C(C)C)C1 (stereo not shown)
pEC50: ≥ 6.30

compound: CC1COC(=O)C2CCCN(N2)C(=O)C(NC(=O)C(C(C)C)N(C)C(=O)C2CN(C(=O)CCl)C2)Cc2cc(O)cc(c2)-c2ccc3c(-c4cccc(C#N)c4)cn(c3c2)C1 (stereo not shown)
pEC50: ≥ 6.30

compound: CC(C)[C@@H](C(=O)N[C@H]1Cc2cc(O)cc(c2)-c2ccc3c(C#N)cn(c3n2)CC(C)(C)COC(=O)[C@@H]2CCCN(N2)C1=O)N(C)C(=O)C1CN(C(=O)CCl)C1
pEC50: ≥ 6.30

compound: CC(C)[C@@H](C(=O)N[C@H]1Cc2cc(O)cc(c2)-c2ccc3c(C(C)(C)C#N)cn(c3c2)CC(CO)COC(=O)[C@@H]2CCCN(N2)C1=O)N(C)C(=O)C1CN(C(=O)CCl)C1 (single isomer, unassigned) [Compound 21]
pEC50: 5.30 to 6.30

compound: CC(C)C(C(=O)NC1Cc2cc(O)cc(c2)-c2ccc3c(C(C)(C)C#N)cn(c3c2)CC(F)COC(=O)C2CCCN(N2)C1=O)N(C)C(=O)C1CN(C(=O)CCl)C1 (single isomer, unassigned)
pEC50: ≥ 6.30

compound: CC(C)[C@@H](C(=O)N[C@H]1Cc2cc(O)cc(c2)-c2ccc3nc(-c4cccnc4)n(c3c2)CCCOC(=O)[C@@H]2CCCN(N2)C1=O)N(C)C(=O)C1CN(C(=O)CCl)C1
pEC50: 5.30 to 6.30
